# key: entry, value: sensor-assay potency score (higher = more potent)
target: FCHSD2; test: pooled miR-30 sensor sort-seq; sequence = guide strand; settings: shRNA; further: reference of the scale not given here
Please reply with the value in numeric form only.

Construct Sequence | Target Desc | Reported Measurement
TTTCTGATTCTAACTGTCGGCT | FCHSD2 | -0.5

Problem: Lab note: record sensor-assay potency score (higher = more potent) of TAGGAATAAACAACTTTGCAGG tested on FCHSD2. Further: reference of the scale not given here.
Result: -0.656

Problem: State the measured sensor-assay potency score (higher = more potent) (FCHSD2) of TATCTTCAAACTCTTCGCCTTC
Result: -0.452

Problem: Fill in sensor-assay potency score (higher = more potent) for TTCGGTATCTGCATTAAGCGAG tested with FCHSD2.
Result: 0.0519

Problem: Write sensor-assay potency score (higher = more potent) of TGCTTTAGCAGGTCCAACCGGG ; system used: FCHSD2; further: reference of the scale not given here
Result: -0.504

Problem: Please respond with reported sensor-assay potency score (higher = more potent) (system FCHSD2) for TTTTCTTGCAAAAACAGCTGAA . Further: reference of the scale not given here.
Result: -0.0894

Problem: Provide sensor-assay potency score (higher = more potent), tested on FCHSD2, for TTCTGTTCTAGCTCTGCTCGGC . Further: reference of the scale not given here.
Result: -0.12
